Test target: Adrenergic receptor beta (Homo sapiens, UniProt P08588+P07550+P13945)
Assay info: In Vitro inhibition of the beta adrenergic receptor in guinea pig atria
Format: tissue-based, Cavia porcellus
Condition details: target entry is the homologue from another species
Value kind: pA2
Answer with the value's number alone.

Request: Which pA2 value belongs to COc1ccc(CCNCC(O)COC(=O)c2ccc(N)cc2)cc1OC (configuration not stated) ?
Response: 6.5

Request: Do the same for C=CCOc1cccc(C(=O)OCC(O)CNC(C)C)c1 (configuration not stated) please
Response: 6.8

Request: Do the same for CC(C)(CNS(=O)(=O)c1ccccc1)NCC(O)COC(=O)c1ccccc1F.O=C(O)C(=O)O (configuration not stated) please
Response: 7

Request: Do the same for CNCC(O)COC(=O)c1ccc2c(c1)OCO2 (configuration not stated) please
Response: 5.3

Request: Do the same for Cc1ccc(C(=O)OCC(O)CNC(C)C)cc1 (configuration not stated) please
Response: 6.8

Request: Do the same for COc1ccc(CCNCC(O)C(=O)Oc2ccccc2C)cc1OC (configuration not stated) please
Response: 5.9

Request: Do the same for CCCOc1cccc(C(=O)OCC(O)CNC(C)C)c1 (configuration not stated) please
Response: 6.6

Request: Do the same for COc1ccc(CCNCC(O)C(=O)Oc2ccccc2)cc1OC (configuration not stated) please
Response: 5.9

Request: Do the same for CCC(C)(C)NCC(O)COC(=O)c1ccccc1F (configuration not stated) please
Response: 6.7

Request: Do the same for CNC(=O)NCC(C)(C)NCC(O)COC(=O)c1ccccc1F (configuration not stated) please
Response: 6.5

Request: Do the same for CC(C)NCC(O)COC(=O)c1ccccc1 (configuration not stated) please
Response: 6.3

Request: Do the same for Cc1cccc(C(=O)OCC(O)CNC(C)(C)C)c1 (configuration not stated) please
Response: 7
